The origin of these recorded values is ChEMBL document CHEMBL2331081.

- Tested on: MCF7
- run description: CYtotoxicity against ER-positive human MCF7 cells by MTS assay
- Assay type: functional, cell-based
property: log10 of IC50 (log10 of the value in µM)
Base-10 log of IC50, unit µM.

smiles code	log10 of IC50
C[C@H](NC(=O)c1cc(Cl)ccc1O)c1ccccc1	-0.05

Find the recorded log10 of IC50 belonging to O=C(Nc1ccc2c(c1)S(=O)(=O)C=C2)c1cc(-c2ccccc2)nc2ccccc12 and report it.
-1.00

Try this compound too: O=C(Nc1ccc2c(c1)S(=O)(=O)C=C2)c1ccnc2ccccc12
0.47

Try N#C/C(=C\c1cccc(Br)n1)C(=O)Nc1ccc2c(c1)S(=O)(=O)C=C2 next.
0.52

Another compound to look at: O=C(Nc1ccc2c(c1)S(=O)(=O)C=C2)c1cc(Cl)ccc1O
-0.04

Continue with O=C(Nc1ccc2c(c1)S(=O)(=O)C=C2)c1ccnc(-c2ccccc2)c1
0.58

Now this one: C[C@H](NC(=O)c1cc(-c2ccccc2)nc2ccccc12)c1ccccc1
0.35

Similarly, O=C(Nc1ccc2c(c1)S(=O)(=O)C=C2)c1cc(-c2ccccc2)nc(-c2ccccc2)c1 ?
-0.19
